targetUnderTest: CLK4 (human)
testSummary: radiometric filter-binding kinase assay, Kinase HotSpot
experimentalContext: compound 0.5 µM; ATP 10 µM
Could you please report measured residual activity for the items listed next?
Could you give me the number in %? Just the number is fine.

Q: What reported residual activity corresponds to `O=C1NC(=O)/C(=C/c2ccc3c(c2)OC(F)(F)O3)S1` on CLK4 (human)?
Ans: 88.8

Q: Recorded residual activity for `COc1ccc2c(c[n+](C)c3c4cc5c(cc4ccc23)OCO5)c1OC` with CLK4 (human), please?
Ans: 89.9

Q: API: value(readout= residual activity, system= CLK4 (human), query= `CCOC(=O)c1c(C)[nH]c(/C=C2\C(=O)Nc3ccccc32)c1C` )
Ans: 94.3

Q: Form: Entry = `CNc1cc2c(Nc3cccc(Br)c3)ncnc2cn1` | System = CLK4 (human) | residual activity = ____
Ans: 60.9

Q: # get_value(readout= residual activity, system= CLK4 (human)) for `Oc1cccc(-c2nc(N3CCOCC3)c3oc4ncccc4c3n2)c1`
Ans: 81.5

Q: CLK4 (human) / residual activity / `CCN(CC)CCNC(=O)c1c(C)[nH]c(/C=C2\C(=O)Nc3ccc(Cl)cc32)c1C` : value?
Ans: 16.8

Q: Could you share what residual activity was measured for `O=C(Nc1cccc(Nc2nccc(Nc3cccc(C(F)(F)F)c3)n2)c1)C1CC1` , tested on CLK4 (human)?
Ans: 84.3

Q: Missing value: residual activity, CLK4 (human), entry `CCN(CC)CCNC(=O)c1c(C)[nH]c(/C=C2\C(=O)Nc3ccc(F)cc32)c1C` . Fill in?
Ans: 26.3

Q: Provide value of residual activity for this record tested with CLK4 (human): `Cc1ccc(S(=O)(=O)/C=C/C#N)cc1`
Ans: 89.7

Q: Please state recorded residual activity (tested on CLK4 (human)) of `CCC(=O)Nc1ccc2ncnc(Nc3cccc(Br)c3)c2c1`
Ans: 99.4

Q: Report residual activity for `Nc1ncnc2c1c(-c1ccc(Oc3ccccc3)cc1)cn2C1CCCC1` tested on CLK4 (human).
Ans: 98

---

targetUnderTest: MAPK12 (human) (UniProt P53778)
Sequence (P53778 whole entry, looked up): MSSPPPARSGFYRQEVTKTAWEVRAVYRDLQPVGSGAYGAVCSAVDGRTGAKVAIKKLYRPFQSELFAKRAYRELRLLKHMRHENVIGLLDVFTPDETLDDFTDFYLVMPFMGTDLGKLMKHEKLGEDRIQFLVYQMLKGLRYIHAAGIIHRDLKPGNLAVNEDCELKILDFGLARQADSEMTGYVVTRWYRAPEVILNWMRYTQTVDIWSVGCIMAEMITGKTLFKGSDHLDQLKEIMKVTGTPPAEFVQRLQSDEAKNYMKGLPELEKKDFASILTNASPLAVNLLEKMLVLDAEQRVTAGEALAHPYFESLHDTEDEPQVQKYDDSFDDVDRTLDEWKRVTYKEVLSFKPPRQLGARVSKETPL
testSummary: radiometric filter-binding kinase assay, Kinase HotSpot
experimentalContext: compound 0.5 µM; ATP 10 µM
experimentalEndpoint: residual activity (%)
// note: answer is a bare numeric in %

Q: What value of residual activity has been recorded for this entry: `Cc1ccc(Nc2nccc(N(C)c3ccc4c(C)n(C)nc4c3)n2)cc1S(N)(=O)=O`
Ans: 93.7

Q: Any idea what its residual activity is? The molecule is `c1ccc(-c2n[nH]c3c2oc2ccccc23)cc1`
Ans: 100

Q: Param item = `O=C1NC(=O)/C(=C/c2ccc3c(c2)OC(F)(F)O3)S1` ; retrieve measured residual activity.
Ans: 92.8

Q: Given the molecule `COc1cc2ncnc(Nc3cccc(Cl)c3)c2cc1OC` , what is its reported residual activity?
Ans: 98.5

Q: Consider the molecule `Nc1ncnc2[nH]nc(Nc3ccc(F)cc3)c12` and give its measured residual activity.
Ans: 94.2

Q: Returns the measured residual activity for the input molecule. Input: CO[C@H]1CC2CC[C@@H](C)[C@@](O)(O2)C(=O)C(=O)N2CCCC[C@H]2C(=O)OC([C@H](C)C[C@@H]2CC[C@@H](O)[C@H](OC)C2)CC(=O)[C@H](C)/C=C(\C)[C@@H](O)[C@@H](OC)C(=O)[C@H](C)C[C@H](C)/C=C/C=C/C=C/1C (stereo partly specified)
Ans: 107

Q: I have this molecule here, `CCCC(=O)Oc1ccc2[nH]c(C(=O)c3cc4ccccc4[nH]3)cc2c1` , and I need its recorded residual activity.
Ans: 93.7

Q: Find the recorded residual activity belonging to `Nc1ccc2ncnc(NCCc3ccc(Oc4ccccc4)cc3)c2c1` and report it.
Ans: 93.6

Q: # lookup: residual activity of `Oc1cccc(-c2nc(N3CCOCC3)c3oc4ncccc4c3n2)c1`
Ans: 93.4

Q: Return reported residual activity; argument: `CC(=O)c1ccc(N2CCOCC2)cc1O`
Ans: 78.7

Q: Name the reported residual activity value associated with the molecule `COc1ccc2c(c[n+](C)c3c4cc5c(cc4ccc23)OCO5)c1OC`
Ans: 100

Q: Requested read-out: residual activity. Entry: `CC(C)N(CCC(=O)c1ccc2ccccc2c1)Cc1ccccc1`
Ans: 96.2

Q: GET /values?readout=residual activity&item= `CCN(CC)CCNC(=O)c1c(C)[nH]c(/C=C2\C(=O)Nc3ccc(Cl)cc32)c1C`
Ans: 96.6

Q: State the recorded residual activity for this entry: `Nc1ncnc2c1c(-c1ccc(Oc3ccccc3)cc1)cn2C1CCCC1`
Ans: 97.6

Q: # input molecule: `COc1ccc(COc2ccc(Cc3cnc(N)nc3N)cc2OC)cc1` ; wanted: its residual activity
Ans: 102

Q: Quick one: residual activity of `O=C1NC(=O)c2c1c1c3ccccc3n3c1c1c2c2ccccc2n1C1CCC3O1` ?
Ans: 113

Q: Which residual activity value is on record for `Nc1cccc(-c2cc3c(Oc4cccc(O)c4)ncnc3[nH]2)c1` ?
Ans: 88.6

Q: Request the reported residual activity associated with `O=C1Nc2ccc(Cl)cc2/C1=C/c1cc(Cl)c(O)c(Cl)c1`
Ans: 90.5

Q: Need residual activity of `CCN(CC)C(=O)c1ccc(Nc2nc(OCC3CCCCC3)c3nc[nH]c3n2)cc1` , thanks.
Ans: 99.4

Q: Returns the measured residual activity for the input molecule. Input: `N#C/C(=C(/N)Sc1ccc(N)cc1)c1ccccc1C(F)(F)F`
Ans: 97.4

Q: GET /values?readout=residual activity&item= `CC[n+]1c(/C=C/N(C)c2ccccc2)n(-c2ccccc2)c2ccc(-c3nc4ccccc4s3)cc21`
Ans: 105
